Data provenance: patent US10364238B2

# Measurement Target: UniProt:P03951
# Sequence (P03951 388-625): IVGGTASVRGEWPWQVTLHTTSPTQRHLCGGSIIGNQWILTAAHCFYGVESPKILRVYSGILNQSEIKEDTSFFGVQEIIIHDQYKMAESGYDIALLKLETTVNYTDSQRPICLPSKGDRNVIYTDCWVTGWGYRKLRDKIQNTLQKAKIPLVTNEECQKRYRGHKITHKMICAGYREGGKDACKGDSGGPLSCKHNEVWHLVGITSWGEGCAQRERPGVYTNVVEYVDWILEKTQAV
# Sequence (P03951 19-387 partner): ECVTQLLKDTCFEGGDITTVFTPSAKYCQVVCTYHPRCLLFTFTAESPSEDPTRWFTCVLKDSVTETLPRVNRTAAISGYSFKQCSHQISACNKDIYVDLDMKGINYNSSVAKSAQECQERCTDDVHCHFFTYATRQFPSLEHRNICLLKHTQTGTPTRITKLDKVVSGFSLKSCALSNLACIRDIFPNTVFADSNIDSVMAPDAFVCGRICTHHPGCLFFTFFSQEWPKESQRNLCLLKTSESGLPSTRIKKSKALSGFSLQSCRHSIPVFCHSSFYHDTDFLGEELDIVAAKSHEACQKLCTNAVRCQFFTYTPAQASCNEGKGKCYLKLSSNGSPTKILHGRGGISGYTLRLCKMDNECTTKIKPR
# Experimental Protocol: Determination of the % inhibition for FXIa
# Format: biochemical
# Settings: 40 μM test compound, 25° C., substrate Z-Gly-Pro-Arg-AFC
Quantity: inhibition at 40 µM (%)
Give bare numbers, in %.

Some entries whose results are on file:
In [3]: df
Out[3]:
                              line_notation  measurement_target  unit_annotation  measured_number
0  COCc1nn(Cc2ccc(Cn3ccccc3=O)cc2)cc1C(=O)NCc1cccc(OC(F)F)c1      UniProt:P03951                %                0
1  COc1cccc(CNC(=O)c2cn(Cc3ccc(Cn4ccccc4=O)cc3)nc2N(C)C)c1F      UniProt:P03951                %                0
2  COCc1nn(Cc2ccc(Cn3ccccc3=O)cc2)cc1C(=O)NCc1cc(Cl)cc(OC)c1      UniProt:P03951                %                0

# batch: return inhibition at 40 µM for each of the 4 molecules below
1. CCOc1ccn(Cc2ccc(Cn3cc(C(=O)NCc4c(F)ccc(OC)c4F)c(COC)n3)cc2)c(=O)c1
2. COc1cccc(CNC(=O)c2cn(Cc3ccc(Cn4ccccc4=O)cc3)c(C(F)(F)F)n2)c1F
3. Nc1nn(Cc2ccc(Cn3ccccc3=O)cc2)cc1C(=O)NCc1c(F)cccc1C(F)(F)F
4. COCc1nn(Cc2ccc(Cn3ccccc3=O)cc2)cc1C(=O)NCc1c(C#N)ccc(OC)c1F

// result
[2, 0, 6, 28]

###

# Measurement Target: Human plasma kallikrein (Homo sapiens (Human), UniProt P03952)
# Sequence (P03952 391-638): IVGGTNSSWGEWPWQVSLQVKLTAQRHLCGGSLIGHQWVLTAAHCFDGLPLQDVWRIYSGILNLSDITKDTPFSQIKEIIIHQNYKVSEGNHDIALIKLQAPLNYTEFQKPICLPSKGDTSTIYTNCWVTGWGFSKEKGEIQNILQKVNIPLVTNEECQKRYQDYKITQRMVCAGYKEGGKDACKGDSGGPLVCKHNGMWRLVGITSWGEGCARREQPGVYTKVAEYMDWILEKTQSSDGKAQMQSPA
# Sequence (P03952 20-390 partner): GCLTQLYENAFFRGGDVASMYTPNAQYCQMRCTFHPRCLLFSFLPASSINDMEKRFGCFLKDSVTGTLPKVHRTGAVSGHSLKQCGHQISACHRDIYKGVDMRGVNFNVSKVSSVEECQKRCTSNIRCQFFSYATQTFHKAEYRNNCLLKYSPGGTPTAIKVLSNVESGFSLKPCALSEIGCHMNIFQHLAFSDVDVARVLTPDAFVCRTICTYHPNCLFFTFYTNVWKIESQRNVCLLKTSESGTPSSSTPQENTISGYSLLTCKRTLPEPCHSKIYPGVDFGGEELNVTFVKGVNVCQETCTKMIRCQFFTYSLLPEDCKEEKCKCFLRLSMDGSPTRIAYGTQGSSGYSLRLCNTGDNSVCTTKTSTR
# Experimental Protocol: Determination of the IC50 for plasma kallikrein
# Settings: 25° C., fluorogenic substrate H-DPro-Phe-Arg-AFC; read-out: IC50 (human PKaI)
Please provide measured pIC50 for the entries that follow.
One number for each entry, as −log10 of the molar value.

Some entries whose results are on file:
>>> print(df.to_string())
                              line_notation                        measurement_target  quantity  measured_number
0  COCc1nn(Cc2ccc(Cn3ccccc3=O)cc2)cc1C(=O)NCc1cc(OC)ccc1C(N)=O  Human plasma kallikrein (Homo sapiens (Human), UniProt P03952)     pIC50             8.06
1  Cc1cnn(Cc2ccc(Cn3cc(C(=O)NCc4c(C(F)(F)F)ccc(Cl)c4F)c(C(F)(F)F)n3)cc2)c1  Human plasma kallikrein (Homo sapiens (Human), UniProt P03952)     pIC50             6.59
2  Cc1cnn(Cc2ccc(Cn3cc(C(=O)NCc4c(F)cccc4C(F)(F)F)c(C(F)(F)F)n3)cc2)c1  Human plasma kallikrein (Homo sapiens (Human), UniProt P03952)     pIC50             6.66
3  COc1cccc(CNC(=O)c2cn(Cc3ccc(Cn4ccccc4=O)cc3)c(C(F)(F)F)n2)c1F  Human plasma kallikrein (Homo sapiens (Human), UniProt P03952)     pIC50             6.72

Attention now turns to another entry.
// query So what does the record say about pIC50 for COCc1nn(Cc2ccc(Cn3ccccc3=O)cc2)cc1C(=O)NCc1cnccc1C(F)(F)F ?
// result 6.41
